assay: recombinant UMI read abundance after kanamycin selection (control-corrected) (log10(CPM+1)); higher = more efficient recombination; extreme values may be limits of the assay; sequences stand for … in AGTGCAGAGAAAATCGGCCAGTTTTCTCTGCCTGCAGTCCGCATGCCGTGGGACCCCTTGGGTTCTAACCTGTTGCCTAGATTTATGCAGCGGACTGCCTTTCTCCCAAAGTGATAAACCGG…AGGTTGGTTTCACT; site = the 11-nt donor;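 note: IS621 bridge recombinase in Escherichia coli cells against a fixed T5 target plasmid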
Readout Name: recombinant UMI read abundance (log10)

* TAGCAATCATGGACCGGTTTTCCCGGTAATCCGTATTTGCG (site TAGAAATCTCG) | 0
* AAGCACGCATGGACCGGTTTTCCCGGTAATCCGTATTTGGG (site AAGCACTCTCC) | 0.0617
* TATACTACATGGACCGGTTTTCCCGGTAATCCGTATTTGTG (site TATACTACTCA) | 0.195
* AGGACAACATGGACCGGTTTTCCCGGTAATCCGTATTTGAC (site AGGACTACTGT) | 0
* AAAGATACATGGACCGGTTTTCCCGGTAATCCGTATTTGTT (site AAAGATACTAA) | 2.21
* GGTGCACCATGGACCGGTTTTCCCGGTAATCCGTATTTGCA (site GGCGCACCTTG) | 0.0224
* CCCAGCACATGGACCGGTTTTCCCGGTAATCCGTATTTGAA (site CCCAGCACTTT) | 0.515
* TTGGTATCATGGACCGGTTTTCCCGGTAATCCGTATTTGTG (site TTGGTATCTCA) | 1.82
* CGATCGACATGGACCGGTTTTCCCGGTAATCCGTATTTGAT (site CGATCGACTAA) | 0.0179
